experimental-protocol: NCI Yeast Anticancer Drug Screen. Data for the rad50 strain (AID 155)
condition-parameters: S. cerevisiae rad50 strain growth inhibition; at 50.0 µM
The panel holds about 79,000 compounds, 15% with a hit somewhere; the sample as a whole holds those more often. Activity calls are given as the source filed them. Rule as the data show it: active = growth inhibition above about 70%; inactive = the rest.
Choose the fitting class; nothing outside TRUE for active, FALSE for inactive is accepted.

Prompt: Please let me know the test result on file for COC(O)C(=O)c1c2c(cc3c1CCC3)CCC2 (stereo unspecified) .
Completion: FALSE

Prompt: Please let me know the test result on file for CC(C)N(C(=O)C12C3C4C5(C#N)C3C1(C#N)C5C42C#N)C(C)C (stereo unspecified) .
Completion: FALSE

Prompt: Please let me know the test result on file for O=CC(O)C(O)C(O)C(O)COC1OC(CO)C(O)C(O)C1O (stereo unspecified) .
Completion: FALSE

Prompt: Please let me know the test result on file for O=C(O)CC1=C(c2ccccc2)C(O)(c2ccccc2)CC1=O (stereo unspecified) .
Completion: FALSE

Prompt: Please let me know the test result on file for BrCC(Br)c1ccc(C(Br)CBr)cc1 (stereo unspecified) .
Completion: FALSE

Prompt: Please let me know the test result on file for Cc1ccc(NC(=O)CCC(=O)C(C)C(=O)c2ccccc2)cc1C (stereo unspecified) .
Completion: FALSE

Prompt: Please let me know the test result on file for COc1ccc(-c2cc(C(=O)N/N=C/c3ccc([N+](=O)[O-])cc3)c3ccc(C)cc3n2)cc1OC .
Completion: FALSE

Prompt: Please let me know the test result on file for C=CC(=NC(C)(C)C)Nc1ccc(Cl)cc1 .
Completion: FALSE

Prompt: Please let me know the test result on file for O=C(c1ccc(Cl)cc1)C(Br)C(C[N+](=O)[O-])c1ccccc1 (stereo unspecified) .
Completion: TRUE

Prompt: Please let me know the test result on file for CC(=O)OCCn1c([N+](=O)[O-])cnc1/C=[N+](/C)[O-] .
Completion: FALSE

Prompt: Please let me know the test result on file for CC(C)(c1ccc([N+](=O)[O-])cc1)c1ccc(N)c([N+](=O)[O-])c1 .
Completion: FALSE

Prompt: Please let me know the test result on file for CCN(CC)C(=S)SCCC(N)=O .
Completion: FALSE

Prompt: Please let me know the test result on file for CN(N)C(=O)Nc1ccc([N+](=O)[O-])cc1 .
Completion: FALSE

Prompt: Please let me know the test result on file for CCCCNc1nc(Cl)nc(C(F)(F)F)c1N .
Completion: FALSE

Prompt: Please let me know the test result on file for OCC1NC(COC2OC(CO)C(O)C(O)C2O)C(O)C(O)C1O (stereo unspecified) .
Completion: FALSE

Prompt: Please let me know the test result on file for O=C(NCc1ccc2ccc3cccnc3c2n1)c1ccc[n+](Cc2ccccc2)c1 .
Completion: FALSE

Prompt: Please let me know the test result on file for CCCCCCCCCC(=O)N(C)OC .
Completion: FALSE

Prompt: Please let me know the test result on file for O=C1CCc2cc3c(cc21)OCO3 .
Completion: FALSE

Prompt: Please let me know the test result on file for COc1cc(/C=C/Cc2cc3c(cc2O)OCO3)cc(OC)c1OC .
Completion: FALSE

Prompt: Please let me know the test result on file for CCOC(=O)NC(C#N)=C(Cl)Cl .
Completion: FALSE

Prompt: Please let me know the test result on file for COC(=O)C1C2CC3C(C2=O)C31 (stereo unspecified) .
Completion: FALSE

Prompt: Please let me know the test result on file for O=C(O)c1cccc(F)c1C(=O)c1ccc2ccccc2c1 .
Completion: FALSE

Prompt: Please let me know the test result on file for O=C(O)CCCCCCCCCCS(=O)(=O)CCO .
Completion: FALSE

Prompt: Please let me know the test result on file for COC(=O)CCCCCCCCCCCCC1C=CCC1 (stereo unspecified) .
Completion: FALSE

Prompt: Please let me know the test result on file for CC(=O)NC(C)NC(C)=O .
Completion: FALSE

Prompt: Please let me know the test result on file for COC(=O)C(Cc1c[nH]c2ccccc12)NC(=O)C(Cc1cnc[nH]1)NC(=O)C1CCC(=O)N1C(=O)OCc1ccccc1 (stereo unspecified) .
Completion: FALSE

Prompt: Please let me know the test result on file for Cc1nccc2scc(S(=O)(=O)O)c12 .
Completion: FALSE

Prompt: Please let me know the test result on file for O=C(O)CC(Cc1ccc2c(c1)OCO2)C(=O)O (stereo unspecified) .
Completion: FALSE

Prompt: Please let me know the test result on file for O=S(=O)(C(=C(c1ccccc1)c1ccccc1)c1ccccc1)c1ccccc1 .
Completion: FALSE

Prompt: Please let me know the test result on file for S=C(N/N=C\c1ccc(Cl)cc1Cl)Nc1ccc2cn[nH]c2c1 .
Completion: FALSE

Prompt: Please let me know the test result on file for CC1SC2=NC3=C(c4ccccc4C3=O)C(c3ccc(Br)cc3)N2C1=O (stereo unspecified) .
Completion: FALSE
